experiment_description: Haemolytic activity in human RBC after 4 hrs
Type: ADME, cell-based, Erythrocyte
test_context: human red blood cells
Square brackets hold non-standard residues; d marks the D form. Peptide text beside a SMILES is read from it. Orn = NCCC[C@H](N)C(=O)O
# Lookup of reported HC50 at 4 h keyed by entry
// units = µg/mL; emit number, no label

Below are worked cases with known answers.
molecule	assay_value
NCCC[C@@H]1NC(=O)[C@H](C23CC4CC(CC(C4)C2)C3)NC(=O)[C@H](CCCN)NC(=O)[C@@H]2CCCN2C(=O)[C@@H](Cc2ccccc2)NC(=O)[C@H](CCCN)NC(=O)[C@H](C23CC4CC(CC(C4)C2)C3)NC(=O)[C@H](CCCN)NC(=O)[C@@H]2CCCN2C(=O)[C@@H](Cc2ccccc2)NC1=O	107
NCCC[C@@H]1NC(=O)[C@H](C23CC4CC(CC(C4)C2)C3)NC(=O)[C@@H]2CCCN2C(=O)[C@@H](Cc2ccccc2)NC(=O)[C@H](C23CC4CC(CC(C4)C2)C3)NC(=O)[C@H](CCCN)NC(=O)[C@H](C23CC4CC(CC(C4)C2)C3)NC(=O)[C@@H]2CCCN2C(=O)[C@@H](Cc2ccccc2)NC(=O)[C@H](C23CC4CC(CC(C4)C2)C3)NC1=O	7.55

Now look at this one.
For the molecule CC(C)C[C@@H]1NC(=O)[C@H](CCCN)NC(=O)[C@H](C(C)C)NC(=O)[C@@H]2CCCN2C(=O)[C@@H](Cc2ccccc2)NC(=O)[C@H](CC(C)C)NC(=O)[C@H](CCCN)NC(=O)[C@H](C(C)C)NC(=O)[C@@H]2CCCN2C(=O)[C@@H](Cc2ccccc2)NC1=O (cyclo(L[dF]PV[Orn]L[dF]PV[Orn])) , report HC50 at 4 h.
17.5

Reference for the values: ChEMBL document CHEMBL4376803
